Record form. Attribute: Absorption maximum 1 λmax. Fill in for each entry.
assay: UV shielding properties (UV spectra in ethanol); assay type: physicochemical; parameters: unit not given here; conditions: UV spectra in ethanol
Give bare numbers.

Recorded results for 3 compounds are shown here.
Smiles data	Absorption maximum 1 λmax
CCc1ccc2c(CC)c(O)c(O)c(O)c2c(=O)c1O	309
COC(=O)c1cc(O)c(=O)c2c(O)c(O)c(O[C@@H]3O[C@H](COC(C)=O)[C@H](OC(C)=O)[C@H](OC(C)=O)[C@H]3OC(C)=O)cc2c1	285
COC(=O)c1cc(O)c(=O)c2c(O)c(O)c(C)cc2c1	280

Your task in this section: give Absorption maximum 1 λmax for each listed record.
1. COC(=O)c1cc(O)c(=O)c2c(O)c(O)c(OCCCO[C@@H]3O[C@H](CO)[C@@H](O)[C@H](O)[C@H]3O)cc2c1
2. O=C(O)c1cc(O)c(=O)c2c(O)c(O)ccc2c1
3. O=c1c(O)cccc2cc(O)c(O)c(O)c12
4. CCOC(=O)CCCCCOc1cc2cc(C(=O)O)cc(O)c(=O)c2c(O)c1O
5. CCCCc1ccc2c(CCCC)c(O)c(O)c(O)c2c(=O)c1O

RESULT:
1. 310
2. 276
3. 281
4. 309
5. 311

###

Can you tell me Absorption maximum 1 A^1%1 cm for the items I'm about to list?
assay: UV shielding properties (UV spectra in ethanol); type: physicochemical; conditions: UV spectra in ethanol
Numbers only.

A selection of reference data follows.
Smiles data	Absorption maximum 1 A^1%1 cm
CCCCCCCCOC(=O)c1cc(O)c(=O)c2c(O)c(O)c(C)cc2c1	748
CCCCCCCC/C=C\CCCCCCCCOc1cc2cc(C(=O)OC)cc(O)c(=O)c2c(O)c1O	574
Cc1cc2cc(CO)cc(O)c(=O)c2c(O)c1O	711
COC(=O)c1cc(O)c(=O)c2c(O)c(O)cc(CCO)c2c1	437
O=C(O)c1cc(O)c(=O)c2c(O)c(O)c(O[C@@H]3O[C@H](CO)[C@@H](O)[C@H](O)[C@H]3O)cc2c1	497

Return reported Absorption maximum 1 A^1%1 cm values for all items listed beneath this line.
1. CCc1ccc2c(CC)c(O)c(O)c(O)c2c(=O)c1O
2. COC(=O)c1cc(O)c(=O)c2c(O)c(O)c(OC)cc2c1
3. COC(=O)c1cc(O)c(=O)c2c(O)c(O)c(OCCCCCC(=O)O)cc2c1

RESULT:
1142
1008
754

###

experiment: UV shielding properties (UV spectra in ethanol); assay type: physicochemical; set-up: unit not given here; details: UV spectra in ethanol
Observed property: Absorption maximum 1 λmax
Numbers only.

Here are 5 compounds together with their reported answers.
Compound	Observed property	Assay value
Cc1cc2cc(CO)cc(O)c(=O)c2c(O)c1O [Compound B-61]	Absorption maximum 1 λmax	295
COC(=O)c1cc(O)c(=O)c2c(O)c(O)c(OCCCCCC(=O)O)cc2c1 [Compound B-15]	Absorption maximum 1 λmax	310
O=C(O)c1cc(O)c(=O)c2c(O)c(O)c(O[C@@H]3O[C@H](CO)[C@@H](O)[C@H](O)[C@H]3O)cc2c1 [Compound B-59]	Absorption maximum 1 λmax	300
CCCCCCCCCCCCOC(=O)c1cc(O)c(=O)c2c(O)c(O)c(OCCCCCCCCCCCC)cc2c1 [Compound B-53]	Absorption maximum 1 λmax	309
CCCCCCCCCCCCOc1cc2cc(C(=O)OCCCCCCCC)cc(O)c(=O)c2c(O)c1O [Compound B-33]	Absorption maximum 1 λmax	310

Go through the list and state Absorption maximum 1 λmax for each entry.
1. COC(=O)c1cc(O)c(=O)c2c(O)c(O)cc(CCO)c2c1 [Compound B-52]
2. COc1cc2cc(C(=O)O)cc(O)c(=O)c2c(O)c1O [Compound B-4]
3. CCCCCCCCCCCCOc1cc2cc(C(=O)OC)cc(O)c(=O)c2c(O)c1O [Compound B-35]

RESULT:
1. 280
2. 307
3. 310

###

assay: UV shielding properties (UV spectra in ethanol); assay type: physicochemical; set-up: unit not given here; conditions: UV spectra in ethanol
Observed property: Absorption maximum 2 λmax
Give bare numbers.

Below, each entry is followed by its recorded Absorption maximum 2 λmax result.
Smiles data	Absorption maximum 2 λmax
COC(=O)c1cc(O)c(=O)c2c(O)c(O)c(O[C@@H]3O[C@H](CO)[C@H](O)[C@H](O)[C@H]3O)cc2c1	397
COC(=O)c1cc(O)c(=O)c2c(O)c(O)cc(CCO)c2c1	399
COC(=O)c1cc(O)c(=O)c2c(O)c(O)cc(CCC(=O)O)c2c1	406
COC(=O)c1cc(O)c(=O)c2c(O)c(O)c(OCCCO[C@@H]3O[C@H](CO)[C@@H](O)[C@H](O)[C@H]3O)cc2c1	404
COc1cc2cc(C(=O)O)cc(O)c(=O)c2c(O)c1O	396

State the recorded Absorption maximum 2 λmax for every item in the following list.
1. Cc1cc2cc(C(=O)NCCCCP(=O)(O)O)cc(O)c(=O)c2c(O)c1O
2. Cc1cc2cc(C(=O)O)cc(O)c(=O)c2c(O)c1O
3. COC(=O)c1cc(O)c(=O)c2c(O)c(O)c(OC)cc2c1
4. COC(=O)c1cc(O)c(=O)c2c(O)c(O)c(C)cc2c1

RESULT:
1: 381; 2: 393; 3: 403; 4: 396

Provide each entry's Absorption maximum 2 λmax from the list below.
1. O=c1c(O)cccc2cc(O)c(O)c(O)c12
2. CCCCCCCCCCCCOc1cc2cc(C(=O)OC)cc(O)c(=O)c2c(O)c1O
3. O=C(O)CCCCCOc1cc2cc(C(=O)O)cc(O)c(=O)c2c(O)c1O
4. COC(=O)c1cc(O)c(=O)c2c(O)c(O)c(O[C@@H]3O[C@H](CO)[C@@H](O)[C@H](O)[C@H]3O)cc2c1
5. O=C(O)c1cc(O)c(=O)c2c(O)c(O)c(O[C@@H]3O[C@H](CO)[C@@H](O)[C@H](O)[C@H]3O)cc2c1
6. CCCCCCCC/C=C\CCCCCCCCOc1cc2cc(C(=O)OC)cc(O)c(=O)c2c(O)c1O

RESULT:
[305, 404, 397, 399, 388, 404]

Please state, for each entry, its recorded Absorption maximum 2 λmax.
1. CCCCCCCCOC(=O)c1cc(O)c(=O)c2c(O)c(O)c(C)cc2c1
2. CCOC(=O)CCCCCOc1cc2cc(C(=O)O)cc(O)c(=O)c2c(O)c1O
3. COC(=O)c1cc(O)c(=O)c2c(O)c(O)c(OCCCCCC(=O)O)cc2c1
4. COC(=O)c1cc(O)c(=O)c2c(OC)c(O)c(OCCO)cc2c1

RESULT:
1. 398
2. 398
3. 398
4. 401

Batch request: Absorption maximum 2 λmax for each of the following compounds.
1. COC(=O)c1cc(O)c(=O)c2c(O)c(O)ccc2c1
2. CCCCCCCCCCCCOC(=O)c1cc(O)c(=O)c2c(O)c(O)c(OCCCCCCCCCCCC)cc2c1
3. O=C(O)c1cc(O)c(=O)c2c(O)c(O)ccc2c1
4. COC(=O)c1cc(O)c(=O)c2c(O)c(O)c(O[C@@H]3O[C@H](COC(C)=O)[C@H](OC(C)=O)[C@H](OC(C)=O)[C@H]3OC(C)=O)cc2c1
5. CCCCCCCCCCCCOc1cc2cc(C(=O)OCCCCCCCC)cc(O)c(=O)c2c(O)c1O

RESULT:
1: 395; 2: 402; 3: 400; 4: 393; 5: 403

###

experiment: Measurement of photostability (irradiation of highly diluted solution of the UV-filter, analysis by UV-spectroscopy); format: physicochemical; conditions: photostability; diluted solution in ethanol; first order kinetic model; half-life under conditions of COLIPA standard sun irradiation
I'd be grateful if you could share measured Half time for these entries.
Answers are plain numbers, in h.

Example cases with answers are listed next.
Smiles data	Observed property	Assay value
O=c1c(O)cccc2cc(O)c(O)c(O)c12	Half time	31.5
COc1cc2cc(C(=O)O)cc(O)c(=O)c2c(O)c1O	Half time	16.6
O=C(O)c1cc(O)c(=O)c2c(O)c(O)ccc2c1	Half time	33.6

For each of the compounds below, note its Half time.
1. COC(=O)c1cc(O)c(=O)c2c(O)c(O)ccc2c1
2. O=C(O)CCCCCOc1cc2cc(C(=O)O)cc(O)c(=O)c2c(O)c1O
3. CCCCCCCC/C=C\CCCCCCCCOc1cc2cc(C(=O)OC)cc(O)c(=O)c2c(O)c1O
4. COC(=O)c1cc(O)c(=O)c2c(O)c(O)c(OCCCO[C@@H]3O[C@H](CO)[C@@H](O)[C@H](O)[C@H]3O)cc2c1
5. COC(=O)c1cc(O)c(=O)c2c(O)c(O)c(OC)cc2c1
6. CCOC(=O)CCCCCOc1cc2cc(C(=O)O)cc(O)c(=O)c2c(O)c1O

RESULT:
1. 61.9
2. 40.1
3. 16.6
4. 51.3
5. 116.5
6. 22.8
